Give Cell kill IC50, HekNectin4 for every item shown.
assayed.target: T1, human nectin-4 protein expressed on the surface of cells (human, UniProt Q96NY8 32-510)
T1 sequence: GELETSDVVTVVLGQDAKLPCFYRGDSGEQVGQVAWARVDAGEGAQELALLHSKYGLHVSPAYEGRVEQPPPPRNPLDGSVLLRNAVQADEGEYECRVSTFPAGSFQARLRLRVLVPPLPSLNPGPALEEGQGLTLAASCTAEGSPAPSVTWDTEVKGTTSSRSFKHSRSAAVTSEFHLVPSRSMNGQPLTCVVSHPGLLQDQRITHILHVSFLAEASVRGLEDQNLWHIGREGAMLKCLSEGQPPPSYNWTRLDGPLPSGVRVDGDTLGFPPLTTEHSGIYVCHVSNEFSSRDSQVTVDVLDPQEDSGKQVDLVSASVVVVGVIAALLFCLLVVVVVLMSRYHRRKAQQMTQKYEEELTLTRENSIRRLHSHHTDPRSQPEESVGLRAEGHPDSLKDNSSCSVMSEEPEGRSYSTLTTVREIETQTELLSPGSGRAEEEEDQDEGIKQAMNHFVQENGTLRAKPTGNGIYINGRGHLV
assay.notes: cell-based or functional assay
Provide the reading as a plain figure in nM.

Entry under review: Nectin-4 5D9 VH5/VL3 (antibody, V domains shown, Humanized; also called 5D9 VH variant 5 / 5D9 VL variant 3) VH: QVQLQESGPGLVKPSETLSLTCTVSGGSLTNYGVHWVRQPPGKGLEWIGVIWSGGSTNYNPSLKSRVTISRDTSKNQVSLKLSSVTAADTAVYYCARSGKWYYFDYWGQGTLVTVSS VL: DIQMTQSPSSLSASVGDRVTITCRASQSIYSNLAWYQQKPGKAPKLLVYAATNLASGVPSRFSGSGSGTDFTLTISSLQPEDFATYYCQHFWGTPTFGGGTKVEIK . Reported Cell kill IC50, HekNectin4?
15.6

Entry under review: Nectin-4 5D9 VH3/VL5 (antibody, V domains shown, Humanized; also called 5D9 VH variant 3 / 5D9 VL variant 5) VH: QVQLQESGPGLVKPSETLSLTCTVSGGSITNYGVHWIRQPPGKGLEWLGVIWSGGSTDYNPSLKSRVTISVDTSKNQFSLKLSSVTAADTAVYYCARSGKWYYFDYWGQGTLVTVSS VL: DIQMTQSPSSLSASVGDRVTITCRASQSIYSNLAWYQQKPGKAPKLLVYAATNLQSGVPSRFSGSGSGTDFTLTISSLQPEDFATYYCQHFWGTPTFGGGTKVEIK . Reported Cell kill IC50, HekNectin4?
40

Entry under review: Nectin-4 5D9 VH5/VL5 (antibody, V domains shown, Humanized; also called 5D9 VH variant 5 / 5D9 VL variant 5) VH: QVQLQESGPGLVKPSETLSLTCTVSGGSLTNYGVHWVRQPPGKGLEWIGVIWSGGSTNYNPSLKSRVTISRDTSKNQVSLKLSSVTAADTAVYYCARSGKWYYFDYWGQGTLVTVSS VL: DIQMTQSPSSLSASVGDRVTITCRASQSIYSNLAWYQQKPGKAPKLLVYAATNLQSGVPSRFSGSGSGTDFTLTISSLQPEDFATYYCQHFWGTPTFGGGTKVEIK . Reported Cell kill IC50, HekNectin4?
33.5
